Tested on: SNB-75 CNS
Test: NCI-60 one-dose screen, 48 h
Details: 10 µM unless noted
The panel holds about 83,000 compounds, 20% with a hit somewhere; the sample as a whole holds those more often. Calls of active or inactive are those of the source. The calls were made as follows: active = growth percent below 10; inactive = the rest.
Use one of these outcomes when replying: active, inactive

Study these solved cases before continuing.
{"compound": "CC1(C)CN(Cc2ccccc2)CCN1Cc1ccccc1", "label": "inactive"}
{"compound": "Clc1ccc(C2CC(c3cccc(Nc4ccncc4)c3)=NN2c2ccccc2)cc1 (stereo not given)", "label": "inactive"}
{"compound": "CCOC(=O)c1ccc(Nc2ccnc(SCC(=O)c3ccc(C#N)cc3)n2)cc1", "label": "inactive"}

Given O=S(=O)(O)c1cc(O)c2c(N=Nc3ccc(Nc4ccccc4)c4c(S(=O)(=O)O)cccc34)cc(S(=O)(=O)O)cc2c1 , state the outcome it received in this test.
inactive
